- assayedTarget: Growth factor receptor-bound protein 2 (Homo sapiens, UniProt P62993)
- Sequence (P62993 whole entry): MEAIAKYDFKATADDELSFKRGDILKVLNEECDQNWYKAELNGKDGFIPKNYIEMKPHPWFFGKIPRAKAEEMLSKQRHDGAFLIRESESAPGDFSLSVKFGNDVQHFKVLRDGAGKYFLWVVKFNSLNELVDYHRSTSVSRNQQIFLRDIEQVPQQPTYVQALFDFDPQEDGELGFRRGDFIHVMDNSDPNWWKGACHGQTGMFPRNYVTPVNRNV
- procedureText: In vitro Growth factor receptor bound protein 2-binding affinity in ELISA method
endpointLabel: pIC50
// returns pIC50 (minus log10 of molar concentration), number only

GET /values?readout=pIC50&item= NC(=O)C[C@@H]1NC(=O)C2(CCCCC2)NC(=O)[C@@H](CC(=O)O)[C@@H](c2ccc(C(C(=O)[O-])C(=O)[O-])cc2)/C=C/C[C@@H](Cc2cccc3ccccc23)CNC1=O.[Na+].[Na+] 8.37

GET /values?readout=pIC50&item= NC(=O)C[C@H](NC(=O)C1(NC(=O)[C@H](Cc2ccc(C(C(=O)O)C(=O)O)cc2)NC(=O)C(=O)O)CCCCC1)C(=O)NCCCc1cccc2ccccc12 7.66

Further cases:
GET /values?readout=pIC50&item= NC(=O)C[C@H](NC(=O)C1(NC(=O)[C@H](Cc2ccc(CP(=O)(O)O)cc2)NC(=O)C(=O)O)CCCCC1)C(=O)NCCCc1cccc2ccccc12 8.00
